# −T × ΔS per entry
Target: LC3B (Homo sapiens, UniProt Q9GZQ8)
Construct: modified Ub-leader (ubiquitin fusion leader) (N); made in house; host or cells: E. coli NEB T7 Express
Test: ITC titration of PLEKHM1-LIR peptides into LC3B
Assay type: binding
Conditions: ITC, 25°C, pH 7.0
Ends that are not written are not given here.
measurement name: −T × ΔS (kcal/mol)

1) GAMGPQQEDEWGNVQYPD [PLEKHM1‐LIR V636G]: -3.70
2) GAMGPQQEDEWVGVQYPD [PLEKHM1‐LIR N637G]: -4.47
3) GAMGPQQEDEWVNVQYPD [PLEKHM1‐LIR WT]: -1.27
4) GAMGPQQEDEWCILQYPD [PLEKHM1‐LIR VNV‐CIL]: -0.98
5) GAMGPQQEDEAVNVQYPD [PLEKHM1‐LIR W635A]: -4.59

---

# ΔS per entry
Molecular target: GABARAP (Homo sapiens)
Construct: modified Ub-leader (ubiquitin fusion leader) (N); made in house; host or cells: E. coli NEB T7 Express
Sequence (O95166 whole entry, the tested form may be a part): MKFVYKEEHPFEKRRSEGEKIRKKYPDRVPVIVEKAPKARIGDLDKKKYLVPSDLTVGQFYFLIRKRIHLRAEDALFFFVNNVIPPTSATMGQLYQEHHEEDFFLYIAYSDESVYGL
Experiment: ITC titration of PLEKHM1-LIR peptides into GABARAP
Format: binding
Details: ITC, 25°C, pH 7.0
Excerpt: The genes for the truncated LC3A^2–121, LC3C^8–125, GABARAP^2–117 and GABARAP‐L1^2–117 proteins were cloned into pET30ΔSE vector between the BamHI and XhoI sites using previously established protocols 38. […] The chimeric constructs were expressed as a His‐tag fusion protein in E. coli BL21(DE3) cells. […]
Ends that are not written are not given here.
measurement name: ΔS (cal mol^−1 K^−1)

1. GAMGPQQEDEWGNVQYPD [PLEKHM1‐LIR V636G]: −5.66
2. GAMGPQQEDEWVNVQYPD [PLEKHM1‐LIR WT]: −6.92

---

# ΔS per entry
Biological target: GABARAP (Homo sapiens)
Construct: modified Ub-leader (ubiquitin fusion leader) (N); made in house; host or cells: E. coli NEB T7 Express
Experiment: ITC titration of PLEKHM1-LIR peptides into GABARAP
Assay type: binding
Conditions: ITC, 25°C, pH 7.0
Ends that are not written are not given here.
measurement name: ΔS

1. GAMGPQQEDEWCILQYPD [PLEKHM1‐LIR VNV‐CIL]: +1.49 cal mol^−1 K^−1
2. GAMGPQQEDEWVGVQYPD [PLEKHM1‐LIR N637G]: +1.07 cal mol^−1 K^−1
3. GAMGPQQEDEAVNVQYPD [PLEKHM1‐LIR W635A]: +14.4 cal mol^−1 K^−1
